// reported Relative activity per item
# TEST_SYSTEM: Monoamine oxidase (Homo sapiens, UniProt P21397+P27338)
# METHOD: Binding affinity towards monoaminooxidase Relative to MPTP
# Type: protein assay

COMPOUND_STRING	Relative activity
OCCN1CC=C(c2ccccc2)CC1	2
CN1CC=C(c2ccc(F)cc2)CC1	2
CCC1=CCN(C)CC1	2
C1=C(c2ccccc2)CCN(CC2CC2)C1	1
CN1CC=C(c2ccc(Cl)cc2)CC1	2
Clc1ccc(C2=CCNCC2)cc1	2
CN1CC=C(c2ccccc2)CC1	3
CN1CC=C(c2cccc(F)c2)CC1	3
CCN1CC=CCC1	2
CN1CCc2c([nH]c3ccccc23)C1	2
CN1CC=C(C2CCCCC2)CC1	3
Fc1ccc(C2=CCNCC2)cc1	2
CN1CC=C(c2cccs2)CC1	2
COc1cccc(C2=CCN(C)CC2)c1	2
COc1ccccc1C1=CCN(C)CC1	3
C1=C(c2ccccc2)CCNC1	3
CCc1ccccc1C1=CCN(C)CC1	3
C1=C(c2ccccc2)CCN(Cc2ccccc2)C1	1
CN1CCC(c2ccccc2)CC1	1
CN1CC=C(c2cccc(Br)c2)CC1	3
CN1CC=C(Cc2ccccc2)CC1	3
CCCCN1CC=C(c2ccccc2)CC1	1
CN1CC=C(c2ccccc2Cl)CC1	3
Cc1cccc(C)c1C1=CCN(C)CC1	3
CN1CC=C(c2cccn2C)CC1	3

---

# TEST_SYSTEM: Corticosteroid-binding globulin (Homo sapiens)
Log 1/K strictly less than -6 = 1 (yes). Otherwise 0 (no).

COMPOUND	QUALITATIVE_LABEL
C[C@]12CCC(=O)C=C1CCC1C3CC[C@H](C(=O)CO)[C@@]34C[C@H](OC4O)C12 (stereo partly drawn)	1 (yes)
C[C@]12CCC(=O)C=C1CC[C@@H]1[C@@H]2CC[C@]2(C)C(=O)CC[C@@H]12	0 (no)
C[C@]12CCC(=O)C=C1CC[C@@H]1[C@@H]2C(=O)C[C@@]2(C)[C@H]1CC[C@]2(O)C(=O)CO	1 (yes)
CC(=O)[C@@]1(O)CC[C@H]2[C@@H]3CC=C4C[C@@H](O)CC[C@]4(C)[C@H]3CC[C@@]21C	0 (no)
CC(=O)[C@H]1CC[C@H]2[C@@H]3CC=C4C[C@@H](O)CC[C@]4(C)[C@H]3CC[C@]12C	0 (no)
CC(=O)[C@@]1(O)CC[C@H]2[C@@H]3CCC4=CC(=O)CC[C@]4(C)[C@H]3CC[C@@]21C	1 (yes)
C[C@]12CC[C@@H](O)C[C@H]1CC[C@@H]1[C@@H]2CC[C@]2(C)C(=O)CC[C@@H]12	0 (no)
CC(=O)[C@H]1CC[C@H]2[C@@H]3CCC4=CC(=O)CC[C@]4(C)[C@H]3CC[C@]12C	1 (yes)

---

This document collects Log 1/K values reported for Corticosteroid-binding globulin (Homo sapiens) (UniProt P08185).
ENDPOINT: Log 1/K

MOLECULE	RESULT
CCCCc1cc2c(cn1)[nH]c1ccccc12	-5
C[C@]12CCC(=O)C=C1CC[C@@H]1[C@@H]2CC[C@@]2(C)[C@H]1CC[C@]2(O)C(=O)CO	-7.88
C[C@]12C[C@H](O)[C@H]3[C@@H](CCC4=CC(=O)CC[C@@]43C)[C@@H]1CC[C@@H]2C(=O)CO	-7.88
C[C@]12CCC3C4=C(CCC3C1CCC2=O)CC(=O)C=C4 (some centres not stated)	-5
C[C@]12CCC(=O)C=C1CC[C@@H]1[C@@H]2[C@@H](O)C[C@@]2(C)[C@H]1CC[C@]2(O)C(=O)CO	-7.88
C[C@]12CC[C@H]3[C@@H](CCC4=CC(=O)CC[C@@]43C)[C@@H]1CC[C@@H]2C(=O)CO	-7.65
C[C@]12CC[C@H](O)CC1=CC[C@@H]1[C@@H]2CC[C@]2(C)C(=O)CC[C@@H]12	-5
